B1: 6NMW (parent)
chain: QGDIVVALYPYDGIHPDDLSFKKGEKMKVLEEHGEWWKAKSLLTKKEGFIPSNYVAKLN

# Variants of: B1
# Protocol notes: folding stability dG (cDNA display proteolysis); higher = more stable
# Study conditions: PBS, room temperature
Range-based classes on measured folding stability dG: lo = under 2 kcal/mol, mid = from 2 kcal/mol up to 3 kcal/mol, hi = 3 kcal/mol and over

Query: Category of V55L , please.
Reply: lo

Query: Tag the class for L43N
Reply: mid

Query: Which category fits this record: D18P
Reply: lo

Query: Into which bin does this variant go? K46D
Reply: mid

Query: State the class of the variant shown: K45S
Reply: hi

Query: Hi there! Could you help me figure out the category for P16V please?
Reply: hi

Query: Class (by measured folding stability dG) for D3S
Reply: hi

Query: # bin lookup: classify K38G by its folding stability dG
Reply: lo

Query: // return the class label for G2A
Reply: hi

// data source = the MegaScale stability set (Tsuboyama et al. 2023)
